TARGET: urate transporter 1 (URAT1/SLC22A12) (Homo sapiens)
Sequence (Q96S37 whole entry): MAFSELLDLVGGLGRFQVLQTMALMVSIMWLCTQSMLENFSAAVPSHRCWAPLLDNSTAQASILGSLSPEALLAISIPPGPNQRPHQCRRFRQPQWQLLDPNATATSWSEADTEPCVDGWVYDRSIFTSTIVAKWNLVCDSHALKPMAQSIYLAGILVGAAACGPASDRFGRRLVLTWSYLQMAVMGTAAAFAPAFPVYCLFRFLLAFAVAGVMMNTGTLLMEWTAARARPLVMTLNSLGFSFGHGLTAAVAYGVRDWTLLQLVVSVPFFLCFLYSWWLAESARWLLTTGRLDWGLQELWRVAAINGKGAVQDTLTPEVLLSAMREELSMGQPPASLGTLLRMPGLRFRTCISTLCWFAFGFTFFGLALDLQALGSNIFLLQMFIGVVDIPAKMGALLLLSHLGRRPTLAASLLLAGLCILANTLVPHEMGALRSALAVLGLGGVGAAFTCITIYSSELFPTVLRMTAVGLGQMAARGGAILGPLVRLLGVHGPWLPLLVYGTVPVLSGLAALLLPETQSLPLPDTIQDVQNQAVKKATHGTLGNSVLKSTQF
PROTOCOL: [[…]-14C]-urate uptake inhibition in URAT1-expressing […] cells
Format: cell-based
Set-up: EGFP-tagged URAT1 wild type (pEGFP-C1)
REPORTED_ENDPOINT: IC50
Quick note: unit goes after the number.

{"SMILES_ENTRY": "COc1ccc([C@@H]2CC(=O)c3c(O)cc(O)cc3O2)cc1O", "REPORTED_ENDPOINT": "IC50", "TEST_VALUE": "25.7 µM"}

From here, focus on the item given below.
For this compound ( `O=C1C[C@@H](c2ccc(O)cc2)Oc2cc(O)cc(O)c21` ), measured IC50 is 16.1 µM

FYI, the data here is from paper PMC7002704.
